Target: NKCC1 (Homo sapiens)
Construct: endogenous in cells; host or cells: native HEK293 cells
Sequence (P55011 1-1212): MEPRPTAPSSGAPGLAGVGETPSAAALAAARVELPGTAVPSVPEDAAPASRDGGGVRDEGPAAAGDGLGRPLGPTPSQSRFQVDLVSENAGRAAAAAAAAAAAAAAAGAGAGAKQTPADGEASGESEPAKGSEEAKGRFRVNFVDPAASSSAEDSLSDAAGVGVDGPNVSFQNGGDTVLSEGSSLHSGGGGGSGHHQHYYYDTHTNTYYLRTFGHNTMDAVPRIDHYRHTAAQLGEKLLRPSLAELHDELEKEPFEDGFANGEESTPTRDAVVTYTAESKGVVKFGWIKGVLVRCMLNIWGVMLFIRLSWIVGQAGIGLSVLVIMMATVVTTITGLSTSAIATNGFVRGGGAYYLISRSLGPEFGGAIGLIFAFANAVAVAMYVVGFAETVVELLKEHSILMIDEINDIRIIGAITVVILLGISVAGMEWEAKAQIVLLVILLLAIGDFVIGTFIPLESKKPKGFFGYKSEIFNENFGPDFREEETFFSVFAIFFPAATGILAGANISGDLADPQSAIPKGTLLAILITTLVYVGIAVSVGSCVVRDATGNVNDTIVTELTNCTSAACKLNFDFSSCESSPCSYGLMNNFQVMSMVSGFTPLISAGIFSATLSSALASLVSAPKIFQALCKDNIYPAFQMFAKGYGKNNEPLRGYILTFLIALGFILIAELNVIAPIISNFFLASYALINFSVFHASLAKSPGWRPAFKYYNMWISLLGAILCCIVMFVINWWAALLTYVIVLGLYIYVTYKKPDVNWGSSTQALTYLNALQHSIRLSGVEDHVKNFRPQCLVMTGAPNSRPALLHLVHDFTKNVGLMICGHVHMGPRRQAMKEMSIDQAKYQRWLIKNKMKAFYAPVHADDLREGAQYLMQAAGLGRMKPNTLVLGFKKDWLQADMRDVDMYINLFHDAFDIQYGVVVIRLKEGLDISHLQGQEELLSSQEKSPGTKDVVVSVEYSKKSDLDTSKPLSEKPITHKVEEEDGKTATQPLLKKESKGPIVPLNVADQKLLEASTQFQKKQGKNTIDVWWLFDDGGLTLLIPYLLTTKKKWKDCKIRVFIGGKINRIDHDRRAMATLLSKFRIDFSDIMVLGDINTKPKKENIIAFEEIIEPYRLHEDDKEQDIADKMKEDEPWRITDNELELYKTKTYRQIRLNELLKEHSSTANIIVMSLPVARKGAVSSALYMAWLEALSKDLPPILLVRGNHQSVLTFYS
Assay: NKCC1-mediated K+ influx (83Rb tracer uptake) in native HEK293 cells, hypertonic saline, 100 μM ouabain
Assay type: cell-based
Conditions: HEK293; 2 μM; no drug = 1000, 20 μM bumetanide = 0; read-out: NKCC1 mediated flux inhibition at 2 μM (%)
Entries annotated with measured inhibition at 2 µM

Solved cases (2 shown):
[[record]]
compound = "CCCCNc1cc(C(=O)O)cc(S(=N)(=O)Nc2ccccc2)c1Oc1ccccc1 (stereo not drawn) [Compound 57]"
experimentalendpoint = "inhibition at 2 µM"
result = "50 to 75%"

[[record]]
compound = "CCCCNc1cc(C(=O)O)cc(S(=N)(=O)NCCc2nccs2)c1Oc1ccccc1 (stereo not drawn) [Compound 86]"
experimentalendpoint = "inhibition at 2 µM"
result = "50 to 75%"


Consider now this further compound.
Sample CCCCNc1cc(C(=O)OC)cc(S(=N)(=O)NC23CC(C2)C3)c1Oc1ccccc1 (stereo not drawn) [Compound 47] — what was its inhibition at 2 µM?
30 to 50%

These measurements were taken from patent US20260374782A1.
